- EXPERIMENTAL PROTOCOL: Pharmacokinetics of oral administration in rats (plasma)
- Format: in vivo
- SETUP CONDITIONS: rat, plasma, po, 10 mg/kg, oral (P.O.), 10 mg/kg, read-out: Tmax (peak time)
QUANTITY MEASURED: Tmax (h)
The figure you give is taken to be in h; do not add the unit.

Query block: Which Tmax is listed for CC1(C)C[C@H]2C3=CC[C@@H]4[C@@]5(C)CC[C@H](O)[C@](C)(CO)[C@@H]5CC[C@@]4(C)[C@]3(C)CC[C@@]2(C)[C@H](O)[C@@H]1O [Soyasapogenol A] ?
Result block: 2

---

- EXPERIMENTAL PROTOCOL: Pharmacokinetics of intravenous injection in rats (plasma)
- Format: in vivo
- SETUP CONDITIONS: plasma; rat, intravenous (I.V.), 25 mg/kg
QUANTITY MEASURED: Cmax (ng/mL)
The figure you give is taken to be in ng/mL; do not add the unit.

Query block: Which Cmax is listed for `CC1(C)C[C@@H](O)[C@]2(C)CC[C@]3(C)C(=CC[C@@H]4[C@@]5(C)CC[C@H](O)[C@](C)(CO)[C@@H]5CC[C@]43C)[C@@H]2C1` ?
Result block: 43300

---

- EXPERIMENTAL PROTOCOL: Pharmacokinetics of intravenous injection in rats (plasma)
- Format: in vivo
- SETUP CONDITIONS: plasma; rat, intravenous (I.V.), 50 mg/kg
- Method: The rats’ dorsal foot veins were cannulated with a standard syringe needle to administer the soyasapogenol. […] Blood samples were collected from the tail vein just prior to soyasapogenol administration (0 h) and 0.03, 0.08, 0.25, 0.5, 1, 2, 4, 6, 8, and 24 h after soyasapogenol loading; blood soyasapogenol levels were measured immediately. […] The soyasapogenol concentrations in the rat plasma solutions were determined according to the method published in [5]. […]
QUANTITY MEASURED: AUC(0-inf) (µg·h/mL)
The figure you give is taken to be in µg·h/mL; do not add the unit.

Query block: Which AUC(0-inf) is listed for CC1(C)C[C@@H](O)[C@]2(C)CC[C@]3(C)C(=CC[C@@H]4[C@@]5(C)CC[C@H](O)[C@](C)(CO)[C@@H]5CC[C@]43C)[C@@H]2C1 [Soyasapogenol B] ?
Result block: 258

---

- EXPERIMENTAL PROTOCOL: Pharmacokinetics of intravenous injection in rats (plasma)
- Assay type: in vivo
- SETUP CONDITIONS: plasma; rat, intravenous (I.V.), 20 mg/kg
QUANTITY MEASURED: Tmax (min)
The figure you give is taken to be in min; do not add the unit.

Query block: Which Tmax is listed for CC1(C)C[C@H]2C3=CC[C@@H]4[C@@]5(C)CC[C@H](O)[C@](C)(CO)[C@@H]5CC[C@@]4(C)[C@]3(C)CC[C@@]2(C)[C@H](O)[C@@H]1O [Soyasapogenol A] ?
Result block: 1.8

---

- EXPERIMENTAL PROTOCOL: Pharmacokinetics of intravenous injection in rats (plasma)
- Format: in vivo
- SETUP CONDITIONS: plasma; rat, intravenous (I.V.), 20 mg/kg
QUANTITY MEASURED: Cmax (µg/mL)
The figure you give is taken to be in µg/mL; do not add the unit.

Query block: Which Cmax is listed for `CC1(C)C[C@H]2C3=CC[C@@H]4[C@@]5(C)CC[C@H](O)[C@](C)(CO)[C@@H]5CC[C@@]4(C)[C@]3(C)CC[C@@]2(C)[C@H](O)[C@@H]1O` ?
Result block: 102

---

- EXPERIMENTAL PROTOCOL: Pharmacokinetics of intravenous injection in rats (plasma)
- Format: in vivo
- SETUP CONDITIONS: plasma; rat, intravenous (I.V.), 20 mg/kg, mean n = 6
QUANTITY MEASURED: AUC(0-t) (µg·h/mL)
The figure you give is taken to be in µg·h/mL; do not add the unit.

Query block: Which AUC(0-t) is listed for CC1(C)C[C@H]2C3=CC[C@@H]4[C@@]5(C)CC[C@H](O)[C@](C)(CO)[C@@H]5CC[C@@]4(C)[C@]3(C)CC[C@@]2(C)[C@H](O)[C@@H]1O [Soyasapogenol A] ?
Result block: 114

---

- EXPERIMENTAL PROTOCOL: Pharmacokinetics of oral administration in rats (plasma)
- Type: in vivo
- SETUP CONDITIONS: rat, plasma, po, oral administration, dose not distinguished, read-out: Tmax
QUANTITY MEASURED: Tmax (h)
The figure you give is taken to be in h; do not add the unit.

Query block: Which Tmax is listed for CC1(C)C[C@@H](O)[C@]2(C)CC[C@]3(C)C(=CC[C@@H]4[C@@]5(C)CC[C@H](O)[C@](C)(CO)[C@@H]5CC[C@]43C)[C@@H]2C1 [Soyasapogenol B] ?
Result block: 2

---

- EXPERIMENTAL PROTOCOL: Pharmacokinetics of oral administration in rats (plasma)
- Type: in vivo
- SETUP CONDITIONS: plasma; rat, oral (P.O.), 25 mg/kg; read-out: CLz/F (clearance) (converted)
QUANTITY MEASURED: CL/F
For clarity, give the value followed by its unit.

Query block: Which CL/F is listed for `CC1(C)C[C@@H](O)[C@]2(C)CC[C@]3(C)C(=CC[C@@H]4[C@@]5(C)CC[C@H](O)[C@](C)(CO)[C@@H]5CC[C@]43C)[C@@H]2C1` ?
Result block: 3.02 mL/min/kg

---

- EXPERIMENTAL PROTOCOL: Pharmacokinetics of oral administration in rats (plasma)
- Type: in vivo
- SETUP CONDITIONS: plasma, oral; rat, 10 mg/kg by gavage, 1.0 h postadministration
QUANTITY MEASURED: concentration at 1 h (ng/mL)
The figure you give is taken to be in ng/mL; do not add the unit.

Query block: Which concentration at 1 h is listed for `CC1(C)C[C@H]2C3=CC[C@@H]4[C@@]5(C)CC[C@H](O)[C@](C)(CO)[C@@H]5CC[C@@]4(C)[C@]3(C)CC[C@@]2(C)[C@H](O)[C@@H]1O` ?
Result block: 29000

---

- EXPERIMENTAL PROTOCOL: Pharmacokinetics of oral administration in rats (plasma)
- Format: in vivo
- SETUP CONDITIONS: rat, plasma, po, 50 mg/kg, oral (P.O.), 50 mg/kg, read-out: Cmax (peak concentration)
QUANTITY MEASURED: Cmax

Query block: Which Cmax is listed for `CC1(C)C[C@@H](O)[C@]2(C)CC[C@]3(C)C(=CC[C@@H]4[C@@]5(C)CC[C@H](O)[C@](C)(CO)[C@@H]5CC[C@]43C)[C@@H]2C1` ?
Result block: 40300 ng/mL

---

- EXPERIMENTAL PROTOCOL: Pharmacokinetics of oral administration in rats (plasma)
- Format: in vivo
- SETUP CONDITIONS: plasma; rat, oral (P.O.), 50 mg/kg; read-out: T1/2z (biological half-life) (converted)
QUANTITY MEASURED: half-life
For clarity, give the value followed by its unit.

Query block: Which half-life is listed for `CC1(C)C[C@@H](O)[C@]2(C)CC[C@]3(C)C(=CC[C@@H]4[C@@]5(C)CC[C@H](O)[C@](C)(CO)[C@@H]5CC[C@]43C)[C@@H]2C1` ?
Result block: 2.27 h

---

- EXPERIMENTAL PROTOCOL: Pharmacokinetics of oral administration in rats (plasma)
- Type: in vivo
- SETUP CONDITIONS: plasma; rat, oral (P.O.), 10 mg/kg, mean n = 6
QUANTITY MEASURED: AUC(0-t)
For clarity, give the value followed by its unit.

Query block: Which AUC(0-t) is listed for `CC1(C)C[C@H]2C3=CC[C@@H]4[C@@]5(C)CC[C@H](O)[C@](C)(CO)[C@@H]5CC[C@@]4(C)[C@]3(C)CC[C@@]2(C)[C@H](O)[C@@H]1O` ?
Result block: 35200 ng·h/mL

---

- EXPERIMENTAL PROTOCOL: Pharmacokinetics of oral administration in rats (plasma)
- Format: in vivo
- SETUP CONDITIONS: plasma; rat, oral (P.O.), 50 mg/kg; read-out: CLz/F (clearance) (converted)
QUANTITY MEASURED: CL/F (mL/min/kg)
The figure you give is taken to be in mL/min/kg; do not add the unit.

Query block: Which CL/F is listed for `CC1(C)C[C@@H](O)[C@]2(C)CC[C@]3(C)C(=CC[C@@H]4[C@@]5(C)CC[C@H](O)[C@](C)(CO)[C@@H]5CC[C@]43C)[C@@H]2C1` ?
Result block: 1.87

---

- EXPERIMENTAL PROTOCOL: Pharmacokinetics of oral administration in rats (plasma)
- Assay type: in vivo
- SETUP CONDITIONS: plasma; rat, oral (P.O.), 50 mg/kg
QUANTITY MEASURED: AUC(0-inf)
For clarity, give the value followed by its unit.

Query block: Which AUC(0-inf) is listed for `CC1(C)C[C@@H](O)[C@]2(C)CC[C@]3(C)C(=CC[C@@H]4[C@@]5(C)CC[C@H](O)[C@](C)(CO)[C@@H]5CC[C@]43C)[C@@H]2C1` ?
Result block: 178 µg·h/mL
